TARGET_OR_TEST_SYSTEM: CYP2B6 (Homo sapiens, UniProt P20813)
Sequence (P20813 whole entry): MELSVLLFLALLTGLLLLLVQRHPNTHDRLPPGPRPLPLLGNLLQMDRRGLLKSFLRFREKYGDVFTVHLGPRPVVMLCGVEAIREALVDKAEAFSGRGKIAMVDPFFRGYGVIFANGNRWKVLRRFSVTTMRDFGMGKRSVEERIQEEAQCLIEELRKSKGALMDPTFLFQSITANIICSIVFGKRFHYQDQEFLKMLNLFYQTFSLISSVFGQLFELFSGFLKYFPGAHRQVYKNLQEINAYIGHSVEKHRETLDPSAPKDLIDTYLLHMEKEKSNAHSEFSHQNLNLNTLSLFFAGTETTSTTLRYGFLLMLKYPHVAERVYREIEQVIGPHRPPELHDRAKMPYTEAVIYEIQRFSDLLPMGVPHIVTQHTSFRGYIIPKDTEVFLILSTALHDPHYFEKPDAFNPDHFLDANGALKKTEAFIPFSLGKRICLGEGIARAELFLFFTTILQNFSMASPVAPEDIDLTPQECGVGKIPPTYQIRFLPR
pIC50: −log10 of the molar value.
MEASUREMENT_KIND: pIC50

Cc1cc2nc3s/c(=C/c4ccc(-c5cccc(C(=O)O)c5)o4)c(=O)n3c2cc1C [NBCoV63]; < 4.60

====

ASSAY_REMARKS: in vitro
CONDITION_CONTEXT: human, microsomes, pH 7.4
MEASUREMENT_KIND: half-life

Cc1cc2nc3s/c(=C/c4ccc(-c5cccc(C(=O)O)c5)o4)c(=O)n3c2cc1C [NBCoV63]; > 3 h

====

ASSAY_REMARKS: in vitro
CONDITION_CONTEXT: human
Listed here are molecules together with their documented CC50.
MEASUREMENT_KIND: CC50

CCC(CC)COC(=O)[C@H](C)N[P@](=O)(OC[C@H]1O[C@@](C#N)(c2ccc3c(N)ncnn23)[C@H](O)[C@@H]1O)Oc1ccccc1 [Remdesivir, reference compound]; > 50 µM
Cc1cc2nc3s/c(=C/c4ccc(-c5cccc(C(=O)O)c5)o4)c(=O)n3c2cc1C; > 50 µM

====

TARGET_OR_TEST_SYSTEM: CYP2C9 (Homo sapiens)
Sequence (P11712 whole entry): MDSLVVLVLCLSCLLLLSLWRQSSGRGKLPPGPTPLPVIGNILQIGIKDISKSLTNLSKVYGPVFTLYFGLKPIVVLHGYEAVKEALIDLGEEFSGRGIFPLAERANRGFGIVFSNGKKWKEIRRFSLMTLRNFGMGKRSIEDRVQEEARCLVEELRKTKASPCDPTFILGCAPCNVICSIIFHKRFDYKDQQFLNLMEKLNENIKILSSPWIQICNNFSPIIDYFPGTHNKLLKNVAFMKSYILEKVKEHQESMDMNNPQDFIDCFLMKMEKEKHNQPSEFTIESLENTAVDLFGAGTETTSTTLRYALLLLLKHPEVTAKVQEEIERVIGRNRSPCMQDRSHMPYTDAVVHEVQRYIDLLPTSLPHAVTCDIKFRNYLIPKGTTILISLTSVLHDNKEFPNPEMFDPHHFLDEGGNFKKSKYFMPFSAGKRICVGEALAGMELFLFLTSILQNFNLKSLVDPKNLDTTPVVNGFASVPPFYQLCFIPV
MEASUREMENT_KIND: IC50

Cc1cc2nc3s/c(=C/c4ccc(-c5cccc(C(=O)O)c5)o4)c(=O)n3c2cc1C; > 25 µM

====

Listed here are compounds together with their documented CC50.
ASSAY_REMARKS: in vitro
CONDITION_CONTEXT: human
MEASUREMENT_KIND: CC50

O=C(O)c1cc(-c2ccc(/C=c3\sc4nc(=O)c5c6c(sc5n4c3=O)CCCC6)o2)ccc1Cl; > 50 µM
Cc1ccc2nc3s/c(=C/c4coc(-c5ccc(Cl)c(C(=O)O)c5)c4)c(=O)n3c2c1; ~50 µM
O=C(O)c1cc(C(=O)O)cc(-c2ccc(/C=c3/sc4nc5ccccc5n4c3=O)o2)c1; > 50 µM
Cc1ccc2c(nc3s/c(=C\c4ccc(-c5ccccc5C(=O)O)o4)c(=O)n32)c1C; > 50 µM
Cc1cc(C(=O)O)ccc1-c1ccc(/C=c2\sc3nc4ccccc4n3c2=O)o1; > 50 µM
O=C(O)c1ccc(-c2ccc(/C=c3/sc4nc5ccccc5n4c3=O)o2)cc1; > 50 µM
COc1cc(/C=c2/sc3nc4ccccc4n3c2=O)ccc1OCc1cccc(C(=O)O)c1; > 50 µM
COc1cc(/C=c2/sc3nc4ccccc4n3c2=O)ccc1OCc1nnn[nH]1; > 50 µM

====

ASSAY_REMARKS: Plasma protein binding
CONDITION_CONTEXT: human, pH 7.4
MEASUREMENT_KIND: fraction unbound at 4 h, 5 µM

Cc1cc2nc3s/c(=C/c4ccc(-c5cccc(C(=O)O)c5)o4)c(=O)n3c2cc1C [NBCoV63]; < 0.005

====

ASSAY_REMARKS: in vitro
CONDITION_CONTEXT: human, microsomes, pH 7.4
MEASUREMENT_KIND: microsomal CLint (µL/min/mg)

Cc1cc2nc3s/c(=C/c4ccc(-c5cccc(C(=O)O)c5)o4)c(=O)n3c2cc1C; 3.4

====

Tested on: MERS-CoV, EMC/2012
ASSAY_REMARKS: microbe, parasite or virus in culture
Assay type: cell-based
CONDITION_CONTEXT: Middle East respiratory syndrome-related coronavirus, Calu-3, read-out: IC50, MERS-CoV
MEASUREMENT_KIND: IC50 (µM)

CCC(CC)COC(=O)[C@H](C)N[P@](=O)(OC[C@H]1O[C@@](C#N)(c2ccc3c(N)ncnn23)[C@H](O)[C@@H]1O)Oc1ccccc1 [Remdesivir, reference compound]; 17.8
Cc1cc2nc3s/c(=C/c4ccc(-c5cccc(C(=O)O)c5)o4)c(=O)n3c2cc1C; 8.01
